# PROTOCOL DETAILS: method code SF-AS, from DOI: 10.1016/0223-5234(89)90112-8
# EXPERIMENTAL PARAMETERS: pH 7.4
PROPERTY NAME: logD

Known results for molecules:
CCCOC1(c2ccccc2)CN(C)CCO1 (configuration not stated) ... 1.95
CCCCOC1(c2ccccc2)CN(C)CCO1 (configuration not stated) ... 2.05
CCOC1(c2ccccc2)OCCN(C)C1C (configuration not stated) ... 1.74
CC(C)COC1(c2ccccc2)CN(C)CCO1 (configuration not stated) ... 1.98
CC1N(C)CCOC1(O)c1ccccc1 (configuration not stated) ... 1.31
CN1CCOC(OCc2ccccc2)(c2ccccc2)C1 (configuration not stated) ... 2.05

[1] C=CCOC1(c2ccccc2)CN(C)CCO1 (configuration not stated)
[2] CN1CCOC(O)C1c1ccccc1 (configuration not stated)
*Q* For 1 and 2 , which recorded logD is lower? Pick one; state its label.
*A* 2
(2: 0.97, 1: 1.92)
